Reported AUC(0-inf) values for the following molecules.
Assay: Plasma concentrations of TQS-168 and TQS-621 after single oral dose 50 mg/kg in mice, three formulations
Type: in vivo
Settings: male, C57BL/6, mouse, plasma, po, 50 mg/kg, mice plasma, TQS-168 50 mg/kg p.o., Group 3 (suspension, Labrafil/Masine/Miglyol/water), individual mouse
Description: In a second experiment, mice were administered 50 mg/kg TQS-168 by oral gavage. For Group 1, TQS-168 was prepared at a concentration of 5.0 mg/mL in a suspension with […] in PBS. For Group 2, TQS-168 was prepared at a concentration of 5.0 mg/mL as a solution in 10 polyethylene glycol (PEG) 400|30 Kleptose (Roquete)|60% water. […] Plasma concentrations of TQS-168 and TQS-621 were measured overtime.
readout-type: AUC(0-inf) (ng·h/mL)

>  <molecule-smiles>
CC(C)(C)c1ccc(-c2nc3ccccc3[nH]2)cc1

>  <unit>
ng·h/mL

>  <reported>
4250

$$$$
>  <molecule-smiles>
CC(C)(C)c1ccc(-c2nc3cc(O)ccc3[nH]2)cc1

>  <unit>
ng·h/mL

>  <reported>
612

$$$$

* * *

experiment: clinical; settings: male, human, in vivo, 120 mg

>  <molecule-smiles>
CC(C)(C)c1ccc(-c2nc3cc(O)ccc3[nH]2)cc1

>  <half-life>
10.2 h

$$$$

* * *

assay: Phase 1 single ascending dose (SAD) trial, plasma pharmacokinetics (Part 1); settings: male, human, in vivo, po, 540 mg, T1/2, human plasma; Regimen C: 540 mg TQS-168 MC oral suspension, fasted, single dose; geometric mean

>  <molecule-smiles>
CC(C)(C)c1ccc(-c2nc3ccccc3[nH]2)cc1

>  <half-life [h]>
10.1

$$$$

* * *

test: Phase 1 multiple dose trial, plasma pharmacokinetics (Part 2); conditions: male, human, in vivo, 90 mg, maximum individual Cmax, human plasma; Regimen J 90 mg SDD fed; Day 7

>  <molecule-smiles>
CC(C)(C)c1ccc(-c2nc3ccccc3[nH]2)cc1

>  <Cmax>
94.1 ng/mL

$$$$

* * *

assay: Tissue concentrations (plasma, brain, liver) after single oral dose 25 mg/kg in mice; type: in vivo; settings: male, C57BL6/J, mouse, plasma, po, 25 mg/kg, 25 mg/kg p.o., 0.0 minutes, average, read-out: concentration in plasma

>  <compound>
CC(C)(C)c1ccc(-c2nc3ccccc3[nH]2)cc1 [TQS-168, 2-(4-tert-butylphenyl)-1H-benzimidazole]

>  <concentration at 0 min / ng/mL>
0.2

$$$$

* * *

Reported Cmax values for the following compounds.
assay: Plasma concentrations of TQS-168 and TQS-621 after single oral dose 50 mg/kg in mice, three formulations; type: in vivo; conditions: male, C57BL/6, mouse, plasma, po, 50 mg/kg, mice plasma, TQS-168 50 mg/kg p.o., Group 2 (solution, PEG400/Kleptose/water), mean; read-out: Cmax
readout-type: Cmax (ng/mL)

>  <molecule-smiles>
CC(C)(C)c1ccc(-c2nc3ccccc3[nH]2)cc1

>  <reported>
2140

$$$$
>  <molecule-smiles>
CC(C)(C)c1ccc(-c2nc3cc(O)ccc3[nH]2)cc1

>  <reported>
449

$$$$

* * *

assay: Phase 1 single ascending dose (SAD) trial, plasma pharmacokinetics (Part 1); conditions: male, human, in vivo, po, 60 mg, Cmax, human plasma; Regimen A: 60 mg TQS-168 MC oral suspension, fasted, single dose; geometric mean

>  <molecule-smiles>
CC(C)(C)c1ccc(-c2nc3ccccc3[nH]2)cc1

>  <Cmax>
26.7 ng/mL

$$$$

* * *

experiment: Plasma and brain concentrations after single oral dose 45 mg/kg in mice; type: in vivo; conditions: mouse, po; mice plasma, TQS-168 45 mg/kg p.o., solution PEG 400/Kleptose/water

>  <molecule-smiles>
CC(C)(C)c1ccc(-c2nc3ccccc3[nH]2)cc1

>  <half-life (h)>
3.26

$$$$

* * *

assay: Phase 1 single ascending dose (SAD) trial, plasma pharmacokinetics (Part 1); settings: male, human, in vivo, po, 180 mg, Cmax, human plasma; Regimen E: 180 mg TQS-168 HME oral suspension, fasted, single dose
readout-type: Cmax (µM)

>  <molecule>
CC(C)(C)c1ccc(-c2nc3ccccc3[nH]2)cc1 [TQS-168, 2-(4-tert-butylphenyl)-1H-benzimidazole]

>  <readout-type>
Cmax

>  <unit>
µM

>  <reported>
0.49

$$$$

* * *

assay: Phase 1 single ascending dose (SAD) trial, plasma pharmacokinetics (Part 1); settings: male, human, in vivo, po, 180 mg, AUC(0-24), human plasma; Regimen E: 180 mg TQS-168 HME oral suspension, fasted, single dose; geometric mean
readout-type: AUC(0-t) (ng·h/mL)

>  <molecule>
CC(C)(C)c1ccc(-c2nc3ccccc3[nH]2)cc1 [TQS-168, 2-(4-tert-butylphenyl)-1H-benzimidazole]

>  <reported>
358

$$$$

* * *

assay: Plasma concentrations of TQS-168 and TQS-621 after single oral dose 50 mg/kg in mice, three formulations; format: in vivo; settings: male, C57BL/6, mouse, plasma, po, 50 mg/kg, mice plasma, TQS-168 50 mg/kg p.o., Group 2 (solution, PEG400/Kleptose/water), mean

>  <molecule-smiles>
CC(C)(C)c1ccc(-c2nc3ccccc3[nH]2)cc1

>  <unit>
ng·h/mL

>  <AUC(0-t)>
10700

$$$$
>  <molecule-smiles>
CC(C)(C)c1ccc(-c2nc3cc(O)ccc3[nH]2)cc1

>  <unit>
ng·h/mL

>  <AUC(0-t)>
2750

$$$$

* * *

experiment: Phase 1 single ascending dose (SAD) trial, plasma pharmacokinetics (Part 1); details: male, human, in vivo, po, 180 mg, AUC(0-last), human plasma; Regimen B: 180 mg TQS-168 MC oral suspension, fasted, single dose; geometric mean

>  <molecule-smiles>
CC(C)(C)c1ccc(-c2nc3ccccc3[nH]2)cc1

>  <AUC(0-t), ng·h/mL>
168

$$$$

* * *

experiment: Plasma and brain concentrations after single oral dose in rats; format: in vivo; conditions: both sexes, Sprague-Dawley, rat; rats plasma, 500 mg/kg single oral dose, suspension
readout-type: Cmax (ng/mL)

>  <molecule-smiles>
CC(C)(C)c1ccc(-c2nc3ccccc3[nH]2)cc1

>  <readout-type>
Cmax

>  <reported>
170

$$$$

* * *

assay: Plasma and brain concentrations after single oral dose 45 mg/kg in mice; type: in vivo; conditions: mouse, po; mice brain, TQS-168 45 mg/kg p.o., solution PEG 400/Kleptose/water
Reported Cmax values for the following molecules.

>  <molecule-smiles>
CC(C)(C)c1ccc(-c2nc3cc(O)ccc3[nH]2)cc1

>  <Cmax, ng/g>
678

$$$$
>  <molecule-smiles>
CC(C)(C)c1ccc(-c2nc3ccccc3[nH]2)cc1

>  <Cmax, ng/g>
4260

$$$$

* * *

assay: Tissue concentrations (plasma, brain, liver) after single oral dose 25 mg/kg in mice; format: in vivo; conditions: male, C57BL6/J, mouse, liver, po, 25 mg/kg, 25 mg/kg p.o., 480.0 minutes, average, read-out: concentration in liver

>  <molecule-smiles>
CC(C)(C)c1ccc(-c2nc3ccccc3[nH]2)cc1

>  <concentration at 480 min>
167 ng/mL

$$$$

* * *

assay: Phase 1 single ascending dose (SAD) trial, plasma pharmacokinetics (Part 1); conditions: male, human, in vivo, po, 90 mg, AUC(0-last), human plasma; Regimen G: 90 mg TQS-168 SDD oral suspension, fasted, single dose; geometric mean

>  <compound>
CC(C)(C)c1ccc(-c2nc3ccccc3[nH]2)cc1 [TQS-168, 2-(4-tert-butylphenyl)-1H-benzimidazole]

>  <AUC(0-t) / ng·h/mL>
189

$$$$

* * *

assay: Phase 1 single ascending dose (SAD) trial, plasma pharmacokinetics (Part 1); settings: male, human, in vivo, po, 180 mg, AUC(0-inf), human plasma; Regimen D: 180 mg TQS-168 SDD oral suspension, fasted, single dose; geometric mean
readout-type: AUC(0-inf) (ng·h/mL)

>  <molecule-smiles>
CC(C)(C)c1ccc(-c2nc3ccccc3[nH]2)cc1

>  <readout-type>
AUC(0-inf)

>  <reported>
621

$$$$

* * *

assay: Phase 1 single ascending dose (SAD) trial, plasma pharmacokinetics (Part 1); details: male, human, in vivo, po, 60 mg, AUC(0-last), human plasma; Regimen A: 60 mg TQS-168 MC oral suspension, fasted, single dose; geometric mean
readout-type: AUC(0-t) (ng·h/mL)

>  <molecule-smiles>
CC(C)(C)c1ccc(-c2nc3ccccc3[nH]2)cc1

>  <readout-type>
AUC(0-t)

>  <reported>
67.6

$$$$

* * *

assay: Plasma and brain concentrations after single oral dose 45 mg/kg in mice; type: in vivo; details: mouse, po; mice plasma, TQS-168 45 mg/kg p.o., solution PEG 400/Kleptose/water

>  <molecule-smiles>
CC(C)(C)c1ccc(-c2nc3cc(O)ccc3[nH]2)cc1

>  <unit>
ng·h/mL

>  <AUC(0-inf)>
4310

$$$$
>  <molecule-smiles>
CC(C)(C)c1ccc(-c2nc3ccccc3[nH]2)cc1

>  <unit>
ng·h/mL

>  <AUC(0-inf)>
13600

$$$$

This collection of values is drawn from patent US20250281462A1.
